In this section we review reported IC50 values for a set of compounds.
# experimental_system: HDAC1 (Homo sapiens (Human))
# Sequence (Q13547 whole entry): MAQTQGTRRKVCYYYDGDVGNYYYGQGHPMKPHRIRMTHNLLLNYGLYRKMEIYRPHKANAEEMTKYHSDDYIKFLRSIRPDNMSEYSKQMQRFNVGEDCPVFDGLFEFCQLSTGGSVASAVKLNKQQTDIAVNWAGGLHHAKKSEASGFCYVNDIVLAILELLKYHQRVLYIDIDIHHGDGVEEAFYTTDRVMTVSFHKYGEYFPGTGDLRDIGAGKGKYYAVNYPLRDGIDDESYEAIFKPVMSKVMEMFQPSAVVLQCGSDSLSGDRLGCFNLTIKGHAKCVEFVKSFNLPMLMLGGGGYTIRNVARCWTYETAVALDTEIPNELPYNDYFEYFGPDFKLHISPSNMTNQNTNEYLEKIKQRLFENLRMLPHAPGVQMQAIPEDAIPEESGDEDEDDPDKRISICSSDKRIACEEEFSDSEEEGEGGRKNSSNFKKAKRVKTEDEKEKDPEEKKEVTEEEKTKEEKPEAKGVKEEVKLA
# measurement_description: HDAC enzyme assay, HDAC1
# setup_conditions: read-out: HDAC1 IC50
Number only, in nM; omit the unit.

Take a look at these entries with their results.
1. Cc1cc(C2(Nc3ncc(C(=O)NO)cn3)CC2)ccc1F [Compound 142] :: 17
2. O=C(NO)c1cnc(NC2(c3cccc(Cl)c3)CCCC2)nc1 [Compound 153] :: 528
3. COc1cc(OC)cc(C2(Nc3ncc(C(=O)NO)cn3)CC2)c1 [Compound 129] :: 43
4. O=C(NO)c1cnc(NC2(Cc3ccccc3)CC2)nc1 [Compound 109] :: 324

Kindly review the next compound as well.
Challenge: What does the data say about its IC50? Entry: O=C(NO)c1cnc(NC2(c3ccc4c(c3)OCO4)CC2)nc1 [Compound 128]
Response given: 16

----------
In this section we review reported pIC50 values for a set of compounds.
# experimental_system: HDAC1 (Homo sapiens (Human))
# measurement_description: HDAC enzyme assay, HDAC1
# setup_conditions: read-out: HDAC1 IC50
Formally, pIC50 is defined as -log10 of the concentration c, with c in mol/L.

Take a look at these entries with their results.
1) CC(C)(Nc1ncc(C(=O)NO)cn1)c1ccc(Cl)cc1F :: 6.35
2) O=C(NO)c1cnc(NC2(c3cccc(F)c3)CCCC2)nc1 :: 6.23
3) O=C(NO)c1cnc(Nc2cc(Cl)cc(OC(F)(F)F)c2)nc1 :: 6.38
4) O=C(NO)c1cnc(NC2(c3ccccc3Cl)CC2)nc1 :: 7.57
5) O=C(NO)c1cnc(NC2CCOCC2)nc1 :: 6.09
6) Cc1cc(F)ccc1C(C)(C)Nc1ncc(C(=O)NO)cn1 :: 5.24
7) CC(C)(Nc1ncc(C(=O)NO)cn1)c1ccccc1 :: 5.93
8) Cc1cc(Cl)ccc1CNc1ncc(C(=O)NO)cn1 :: 6.73
9) CC(Nc1ncc(C(=O)NO)cn1)(c1ccc(F)cc1)c1ccc(F)cc1 :: 5.63
10) O=C(NO)c1cnc(NCc2cccc(C(F)(F)F)c2)nc1 :: 7.42

Challenge: // lookup pIC50 | system=HDAC1 (Homo sapiens (Human)) | key= CC(C)(Nc1ncc(C(=O)NO)cn1)c1ccc(C(F)(F)F)cc1F
Response given: 6.10

Challenge: // lookup pIC50 | system=HDAC1 (Homo sapiens (Human)) | key= O=C(NO)c1cnc(NC2c3ccccc3-c3ccccc32)nc1
Response given: 6.04

Challenge: // lookup pIC50 | system=HDAC1 (Homo sapiens (Human)) | key= COc1ccc(C2(Nc3ncc(C(=O)NO)cn3)CCCC2)cc1
Response given: 6.61

----------
# experimental_system: HDAC3 (Homo sapiens (Human))
# Sequence (O15379 whole entry): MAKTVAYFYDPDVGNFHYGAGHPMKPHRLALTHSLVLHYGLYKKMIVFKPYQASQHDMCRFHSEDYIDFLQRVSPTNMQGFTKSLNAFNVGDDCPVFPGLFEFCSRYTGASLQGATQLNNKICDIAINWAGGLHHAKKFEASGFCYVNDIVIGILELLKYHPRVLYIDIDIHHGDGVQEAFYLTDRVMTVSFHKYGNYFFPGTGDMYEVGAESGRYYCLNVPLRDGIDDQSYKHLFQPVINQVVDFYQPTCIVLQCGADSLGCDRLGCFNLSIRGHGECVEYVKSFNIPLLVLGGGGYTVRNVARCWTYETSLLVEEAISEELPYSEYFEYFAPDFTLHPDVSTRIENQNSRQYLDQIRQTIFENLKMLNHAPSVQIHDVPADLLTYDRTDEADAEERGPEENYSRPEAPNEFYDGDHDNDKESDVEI
# Sequence (Q9Y618 395-489 partner): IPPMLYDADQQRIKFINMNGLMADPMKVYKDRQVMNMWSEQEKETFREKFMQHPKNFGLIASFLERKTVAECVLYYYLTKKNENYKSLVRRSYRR
# measurement_description: HDAC enzyme assay, HDAC3
# setup_conditions: ratio HDAC3/HDAC6
assay_endpoint: HDAC3 fold over HDAC6 IC50 (selectivity for HDAC6)

1. O=C(NO)c1cnc(NCc2ccc(Cl)cc2)nc1 :: (33x)
2. O=C(NO)c1cnc(NCc2ccccc2)nc1 :: (70x)
3. Cc1cc(C)cc(Nc2ncc(C(=O)NO)cn2)c1 :: (88x)
4. O=C(NO)c1cnc(NC2c3ccccc3-c3ccccc32)nc1 :: (70x)
5. O=C(NO)c1cnc(NC2CCOCC2)nc1 :: (24x)
6. Cc1cc(C(F)(F)F)cc(C2(Nc3ncc(C(=O)NO)cn3)CC2)c1 :: (54x)

Challenge: What does the data say about its HDAC3 fold over HDAC6 IC50 (selectivity for HDAC6)? Entry: O=C(NO)c1cnc(NCCc2ccccc2-c2ccccc2)nc1
Response given: (22x)
